Tested on: HCT 116 human colon carcinoma cells
Test: Antiproliferative activity against HCT 116 human colon carcinoma cells (XTT)
Assay type: cell-based
Details: HCT 116 cells, 72 hours incubation, XTT, 50% inhibition of cell proliferation, read-out: GI50
Some compounds, each annotated with its measured GI50.
All answers are understood in µM, so give the number only.

# example entries with known answers
So what does the record say about GI50 for CC(=O)N1N=C(C(=O)NC(C)(C)C)SC1(C)c1ccccc1 (centres unmarked) ?
0.41

So what does the record say about GI50 for CC(=O)N1N=C(C(=O)NC(C)(C)C)SC1(CNS(=O)(=O)CCN(C)C)c1ccccc1 (centres unmarked) ?
0.19

So what does the record say about GI50 for CC(=O)N1N=C(C#CC(C)(C)C)SC1(CNS(C)(=O)=O)c1ccccc1 (centres unmarked) ?
0.2

So what does the record say about GI50 for CC(=O)N1N=C(c2ccccc2F)SC1(CCCN1CCN(C)CC1)c1ccccc1 (centres unmarked) ?
0.16

So what does the record say about GI50 for CC(=O)N1N=C(c2cccc(F)c2)SC1(C)c1ccccc1 (centres unmarked) ?
0.22

---
So what does the record say about GI50 for CC(=O)N1N=C(c2ccccc2F)SC1(C)c1ccccc1 (centres unmarked) ?
0.083

So what does the record say about GI50 for CC(=O)N1N=C(c2cccn2C(=O)OC(C)(C)C)SC1(C)c1ccccc1 (centres unmarked) ?
0.17
